target: Dihydropteroate synthase (Bacillus anthracis) (UniProt Q81VW8); test: Inhibition of Bacillus anthracis DHPS at 200 uM after 10 mins
propertyMeasured: inhibition

Under Dihydropteroate synthase (Bacillus anthracis) (UniProt Q81VW8): report inhibition of "Nc1nc2c(c(=O)[nH]1)C[C@@H](N(CCCP(=O)(O)O)Cc1ccc(C(=O)O)cc1)CN2" . 6.3%

Under Dihydropteroate synthase (Bacillus anthracis) (UniProt Q81VW8): report inhibition of "Nc1nc2ncc(N(CCP(=O)(O)O)Cc3ccc(C(=O)O)cc3)cc2c(=O)[nH]1" . 30.5%

Under Dihydropteroate synthase (Bacillus anthracis) (UniProt Q81VW8): report inhibition of Nc1nc2c(c(=O)[nH]1)CC(N(CCP(=O)(O)O)Cc1ccc(C(=O)O)cc1)CN2 (centres undefined) . 5.7%

Under Dihydropteroate synthase (Bacillus anthracis) (UniProt Q81VW8): report inhibition of "Nc1nc2ncc(N(CCCP(=O)(O)O)Cc3ccc(C(=O)O)cc3)cc2c(=O)[nH]1" . 44.3%
